Target: human recombinant M1 muscarinic receptor expressed in CHO cells (Homo sapiens, UniProt P11229)
Construct: purchased PerkinElmer, Inc., Wellesley, Mass; host or cells: CHO cells
Sequence (P11229 whole entry): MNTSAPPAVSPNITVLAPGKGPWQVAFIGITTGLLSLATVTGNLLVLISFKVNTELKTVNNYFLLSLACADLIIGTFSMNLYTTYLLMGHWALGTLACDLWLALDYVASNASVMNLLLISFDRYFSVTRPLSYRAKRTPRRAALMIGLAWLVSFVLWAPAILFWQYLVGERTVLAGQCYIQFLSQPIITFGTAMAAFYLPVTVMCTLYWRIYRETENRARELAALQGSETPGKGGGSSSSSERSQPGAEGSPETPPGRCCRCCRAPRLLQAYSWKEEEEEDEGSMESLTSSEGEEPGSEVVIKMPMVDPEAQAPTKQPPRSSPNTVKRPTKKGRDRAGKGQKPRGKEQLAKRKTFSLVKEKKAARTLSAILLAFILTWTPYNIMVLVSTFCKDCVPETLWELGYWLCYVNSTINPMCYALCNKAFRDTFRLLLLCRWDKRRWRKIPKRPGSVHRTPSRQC
Assay: M1 muscarinic receptor binding assay ([3H]-scopolamine, N-methyl chloride)
pKi: −log10 of the molar value.
result-type: pKi

>>> recorded_result("O=C(O)CCCN1CCN(C2=Nc3ccccc3Oc3ccccc32)CC1")
"< 5.00"

In the following, a different molecule is considered.
Give the value of pKi reported for the following: O=C(O)CCN1CCN(C2=Nc3ccccc3Oc3ccccc32)CC1
< 5.00

---

Ki values for the compounds below.
Target: human recombinant M3 muscarinic receptor expressed in CHO cells (Homo sapiens, UniProt P20309)
Sequence (P20309 whole entry): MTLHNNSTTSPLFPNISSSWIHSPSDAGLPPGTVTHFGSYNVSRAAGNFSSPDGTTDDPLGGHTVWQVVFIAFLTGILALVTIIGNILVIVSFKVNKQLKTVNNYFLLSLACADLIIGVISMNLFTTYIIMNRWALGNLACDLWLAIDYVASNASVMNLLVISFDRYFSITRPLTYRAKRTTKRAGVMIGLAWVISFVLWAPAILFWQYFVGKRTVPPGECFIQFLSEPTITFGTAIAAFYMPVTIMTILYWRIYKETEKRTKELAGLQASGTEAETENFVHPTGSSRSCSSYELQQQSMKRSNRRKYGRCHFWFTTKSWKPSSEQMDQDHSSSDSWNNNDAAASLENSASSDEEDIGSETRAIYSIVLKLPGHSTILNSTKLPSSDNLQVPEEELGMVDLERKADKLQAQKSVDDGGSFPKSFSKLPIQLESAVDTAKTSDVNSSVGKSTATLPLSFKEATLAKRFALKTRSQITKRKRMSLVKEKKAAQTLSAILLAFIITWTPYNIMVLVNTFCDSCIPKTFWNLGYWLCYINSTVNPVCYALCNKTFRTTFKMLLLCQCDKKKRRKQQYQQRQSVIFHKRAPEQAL
Experiment: M3 muscarinic receptor binding assay

>>> recorded_result("O=C(O)CCN1CCN(C2=Nc3ccccc3Oc3ccccc32)CC1")
"> 10 µM"

Give the value of Ki reported for the following: O=C(O)CCCN1CCN(C2=Nc3ccccc3Oc3ccccc32)CC1
> 10 µM
